Source of measurements: PubChem BioAssay (NCI)

Recorded growth, one value per entry.
Test system: DU-145 prostate
measurement notes: NCI-60 one-dose screen, 48 h (100 = growth as untreated, 0 = no growth, -100 = all killed)
test context: 10 µM unless noted
The panel holds about 83,000 compounds, 20% with a hit somewhere; the sample as a whole holds those more often.
Record the value in %, omitting the unit from your answer.

Record excerpt, results attached:
{"entry smiles": "CCN(CC)CCN1C(=O)c2cccc3c(-c4ccc5c(c4)ncn5C4CCCCC4)ccc(c23)C1=O", "growth (%)": 28.4}
{"entry smiles": "N#Cc1c(NC(=O)c2cccs2)[n+]([O-])c2ccc(F)cc2[n+]1[O-]", "growth (%)": 103}

# evaluate next
Recorded growth for CO[C@H]1C[C@@H]2CC[C@@H](C)[C@@](O)(O2)C(=O)C(=O)N2CCCC[C@H]2C(=O)O[C@H]([C@H](C)C[C@@H]2CC[C@@H](OC(=O)C(C)(CO)CO)[C@H](OC)C2)CC(=O)[C@H](C)/C=C(\C)[C@@H](O)[C@@H](OC)C(=O)[C@H](C)C[C@H](C)\C=C/C=C/C=C/1C , please?
37.7

====

System: NCI-H460 lung
measurement notes: NCI-60 one-dose screen, 48 h
test context: 10 µM unless noted
This is part of a sample that, as a whole, favours compounds with a hit. Of some 83,000 tested, about 20% had one in any assay. Active and inactive are the calls of the source. The calls were made as follows: active = growth percent below 10; inactive = the rest.
Respond with a class label; see active, inactive

The following compounds have reported results that may help.
{"entry smiles": "O=C(Nc1cnn2ccc(N3CCC[C@@H]3c3cc(F)ccc3F)nc12)N1CC[C@H](O)C1", "system name": "NCI-H460 lung", "assigned label": "inactive"}
{"entry smiles": "Cc1cn(-c2cc(NC(=O)c3ccc(C)c(Nc4nccc(-c5cnccn5)n4)c3)cc(C(F)(F)F)c2)cn1", "system name": "NCI-H460 lung", "assigned label": "inactive"}
{"entry smiles": "CN(C)C1CCN(C(=O)c2ccc(NC(=O)Nc3ccc(-c4nc(N5CCOCC5)nc(N5CCOCC5)n4)cc3)cc2)CC1", "system name": "NCI-H460 lung", "assigned label": "active"}
{"entry smiles": "C[C@H]1Oc2cc(cnc2N)-c2c(nn(C)c2C#N)CN(C)C(=O)c2ccc(F)cc21", "system name": "NCI-H460 lung", "assigned label": "inactive"}

Recorded test call requested for COc1ccc(Br)cc1NC(=O)Nc1cccc2c1ccn2Cc1ccnc(N)c1
inactive

Would you kindly repeat that for CO[C@H]1C[C@@H]2CC[C@@H](C)[C@@](O)(O2)C(=O)C(=O)N2CCCC[C@H]2C(=O)O[C@H]([C@H](C)C[C@@H]2CC[C@@H](OC(=O)C(C)(CO)CO)[C@H](OC)C2)CC(=O)[C@H](C)/C=C(\C)[C@@H](O)[C@@H](OC)C(=O)[C@H](C)C[C@H](C)\C=C/C=C/C=C/1C ?
inactive

Would you kindly repeat that for COc1ccc(CCCc2c3[n+](cc4c(OC)c(OC)ccc24)CCc2cc4c(cc2-3)OCO4)cc1 ?
inactive

====

Tested on: OVCAR-8 ovarian
measurement notes: NCI-60 one-dose screen, 48 h
test context: 10 µM unless noted
About 83,000 compounds went through this panel and 20% of them were active in at least one assay; those are over-represented in the sample as a whole. Active and inactive are the calls of the source. Rule for the calls: active = growth percent below 10; inactive = the rest.
Respond with a class label; see true (1) (active), false (0) (inactive)

Recorded test call requested for CN1CCN(c2nc(C3=C(c4c[nH]c5ccccc45)C(=O)NC3=O)c3ccccc3n2)CC1
false (0)

Would you kindly repeat that for COc1ccc(OC)c(NC2=C(SCCc3ccccc3)C(=O)c3ccccc3C2=O)c1 ?
false (0)

Would you kindly repeat that for O=C(c1ccc(F)c(F)c1Nc1ccc(I)cc1F)N1CC(O)([C@@H]2CCCCN2)C1 ?
false (0)

Would you kindly repeat that for CC(=O)NCC(=O)N1[C@@H]2CC[C@H]1c1ccc(Nc3ncc(C(F)(F)F)c(NC4CCC4)n3)cc12 ?
false (0)

Would you kindly repeat that for COc1ccc2c(CCCc3ccc(Cl)cc3Cl)c3[n+](cc2c1OC)CCc1cc2c(cc1-3)OCO2 ?
true (1)

Would you kindly repeat that for O=S1(=O)OC(c2ccc(O)c(Cl)c2)(c2ccc(O)c(Cl)c2)c2ccccc21 ?
false (0)

Would you kindly repeat that for CN1CCN(CC(=O)Nc2ccc(-c3nc4ccccc4s3)cc2)CC1 ?
false (0)

Would you kindly repeat that for N#CCNC(=O)c1ccc(-c2ccnc(Nc3ccc(N4CCOCC4)cc3)n2)cc1 ?
false (0)

Would you kindly repeat that for COc1cc(-c2nc(C(=O)NCC(=O)O)nn2-c2ccc(Cl)cc2)cc(OC)c1OC ?
false (0)

====

Recorded growth, one value per entry.
System: HCC-2998 colon
measurement notes: NCI-60 one-dose screen, 48 h (100 = growth as untreated, 0 = no growth, -100 = all killed)
test context: 10 µM
Procedure: Growth inhibition of the HCC-2998 human tumor cell line is measured as a screen for anti-cancer activity. Cells are grown in 96 well plates and exposed to the test compound for 48 hours. Compounds are tested at a single concentration, which is 10^-5 M for most compounds. The reported endpoint is percent growth (GI% or GIPRCNT), where numbers from 0 - 100% represent growth inhibition, and numbers from -100% - 0 represent cell death. For example, a value of 40 represents 60% growth inhibition. […]
About 83,000 compounds went through this panel and 20% of them were active in at least one assay; those are over-represented in the sample as a whole.
Record the value in %, omitting the unit from your answer.

Record excerpt, results attached:
{"molecule": "CO[C@H]1C[C@@H]2CC[C@@H](C)[C@@](O)(O2)C(=O)C(=O)N2CCCC[C@H]2C(=O)O[C@H]([C@H](C)C[C@@H]2CC[C@@H](O)[C@H](OC)C2)CC(=O)[C@H](C)/C=C(\\C)[C@@H](O)[C@@H](OC)C(=O)[C@H](C)C[C@H](C)\\C=C/C=C/C=C/1C", "system name": "HCC-2998 colon", "value unit": "%", "numeric readout": 58.6}
{"molecule": "CC(=O)Nc1cccc(-n2c(=O)n(C3CC3)c(=O)c3c(Nc4ccc(I)cc4F)n(C)c(=O)c(C)c32)c1", "system name": "HCC-2998 colon", "value unit": "%", "numeric readout": -26.9}

Recorded growth for O=C(Cn1cncn1)Nc1ccc(-c2nc3ccccc3s2)cc1 , please?
93.9

Would you kindly repeat that for O=C1NC(=O)[C@@H](c2cn3c4c(cccc24)CCC3)[C@@H]1c1c[nH]c2ccccc12 ?
18.4

Would you kindly repeat that for COC(=O)[C@H](C)NC(=O)[C@@H](OC)[C@@H]1Cc2cc3cc(OC4CC(OC5CC(O)C(O)C(C)O5)C(O)C(C)O4)c(C)c(O)c3c(O)c2C(=O)[C@H]1OC1CC(OC2CC(OC3CC(C)(O)C(O)C(C)O3)C(O)C(C)O2)C(O)C(C)O1 (stereo partly specified) ?
-44

Would you kindly repeat that for C[C@@]1(C(=O)Nc2ccc(F)nc2)CCCN1c1nc(Nc2cc(C3CC3)[nH]n2)c2cccn2n1 ?
42.2

====

Test system: T-47D breast
measurement notes: NCI-60 one-dose screen, 48 h
test context: 10 µM unless noted
Compounds without any hit were thinned out: in the full panel of roughly 83,000, 20% have a hit. Activity calls are given as the source filed them. Rule for the calls: active = growth percent below 10; inactive = the rest.
Respond with a class label; see class 1 for active, class 0 for inactive

{"compound": "CC(=O)NCC(=O)N1[C@@H]2CC[C@H]1c1ccc(Nc3ncc(C(F)(F)F)c(NC4CCC4)n3)cc12", "system name": "T-47D breast", "assigned label": "class 0"}
{"compound": "O=C1C=CC2(NN=C(c3ccccc3)N2c2ccc(Cl)cc2)c2cccc(O)c21 (stereo not given)", "system name": "T-47D breast", "assigned label": "class 0"}
{"compound": "Cc1ncc(-c2ccnc(Nc3ccc(S(C)(=O)=O)cc3)n2)n1C(C)C", "system name": "T-47D breast", "assigned label": "class 1"}

Recorded test call requested for COc1ccc(C2OC(c3cc(-c4cc5ccccc5o4)nn3-c3ccccc3)=NN2C(C)=O)cc1 (stereo not given)
class 0

Would you kindly repeat that for COc1cc2c(cc1O)c(=O)n(CCN(C)C)c1c3cc4c(cc3ncc21)OCO4 ?
class 1

Would you kindly repeat that for Cc1cc(O)cc(-c2c(-c3ccnc(-c4cccnc4)c3)cnn2C)c1 ?
class 0

Would you kindly repeat that for Cn1cc(-c2cnn3c(N)c(Br)c([C@@H]4CCCNC4)nc23)cn1 ?
class 0

====

System: EKVX NSCLC
measurement notes: NCI-60 one-dose screen, 48 h (100 = growth as untreated, 0 = no growth, -100 = all killed)
test context: 10 µM unless noted
The panel holds about 83,000 compounds, 20% with a hit somewhere; the sample as a whole holds those more often.
reported endpoint: growth (%)
Record the value in %, omitting the unit from your answer.

{"molecule": "COC(=O)CNC(=O)[C@@H](OC)[C@@H]1Cc2cc3cc(OC4CC(OC5CC(O)C(O)C(C)O5)C(O)C(C)O4)c(C)c(O)c3c(O)c2C(=O)[C@H]1OC1CC(OC2CC(OC3CC(C)(O)C(O)C(C)O3)C(O)C(C)O2)C(O)C(C)O1 (stereo partly drawn)", "growth [%]": 20.2}
{"molecule": "C[C@@H](Oc1cc(C(=O)Nc2ccc(C(=O)N3CCN(C)CC3)cc2)nnc1N)c1c(Cl)ccc(F)c1Cl", "growth [%]": 72.5}
{"molecule": "NC1(c2ccc(-c3nc4ccn5c(=O)[nH]nc5c4cc3-c3ccccc3)cc2)CCC1", "growth [%]": 40.6}
{"molecule": "CN1CCN(Cc2ccc(NC(=O)c3[nH]ncc3Nc3ncnc4sc5c(c34)CCCC5)cc2)CC1", "growth [%]": -71.2}
{"molecule": "CC(C)(C)c1ccc(Cn2cc(CSc3nc4ccccc4s3)nn2)cc1", "growth [%]": 98.3}

Recorded growth for NC1=Nc2ccccc2N(O)N1 , please?
95.4

Would you kindly repeat that for O=C(Nc1nc2cccc(-c3ccc(CN4CCS(=O)(=O)CC4)cc3)n2n1)C1CC1 ?
106

Would you kindly repeat that for COC(=O)CCCNc1c(-c2c(O)c(O)cc3c(O)c(-c4c(C)cc5c(-c6nc7ccccn7c6NCCCC(=O)OC)c(O)c(O)cc5c4O)c(C)cc23)nc2ccccn12 ?
61.8
